meta.source: paper PMC7011955

Tested on: lung cancer A-549 cell line
Experiment Description: CellTiter-Glo Luminescent cell viability assay, anti-proliferative activity, A-549
Type: cell-based, human
Settings: Homo sapiens, A549; 30 µM single concentration, quadruplicate; read-out: Growth inhibition % A-549
I would appreciate it if you labelled entries Met when inhibition at 30 µM is 60% or higher, otherwise Not met.

Consider the worked cases shown below.
Compound	Label
O=C1Nc2ccc(Br)cc2C1=NNc1nc(-c2ccccc2)cs1 [Compound 10i]	Met
Cc1csc(C=NN=C2C(=O)Nc3ccc(Br)cc32)n1	Met
O=C1Nc2ccc(Br)cc2C1=NN=Cc1nccs1	Met

Now look at this entry.
Form field: inhibition at 30 µM at least 60%? Entry: "Cc1csc(C=NN=C2C(=O)Nc3ccccc32)n1" Not met

---

Test system: breast cancer ZR-75 cell line
Experiment Description: CellTiter-Glo Luminescent cell viability assay, anti-proliferative activity, ZR-75
Assay type: cell-based, human
Settings: Homo sapiens, ZR75, mean ± SD of four separate experiments
# pIC50 annotations
Note on pIC50: it is the negative log10 of concentration, concentration in mol/L.

Answered cases to consult:
Compound	System Under Test	Observed Measurement
Cc1ccc(-c2csc(NN=C3C(=O)Nc4ccccc43)n2)cc1 [Compound 10b]	breast cancer ZR-75 cell line	4.61
O=C1Nc2ccccc2C1=NNc1nc(-c2ccc(Cl)cc2)cs1 [Compound 10c]	breast cancer ZR-75 cell line	5.31
O=C1Nc2ccccc2C1=NNc1nc(-c2ccccc2)cs1 [Compound 10a]	breast cancer ZR-75 cell line	5.36

Read the next record carefully.
Request the reported pIC50 associated with "Cc1csc(C=NN=C2C(=O)Nc3ccc(Br)cc32)n1" 5.53

---

# melting point annotations

Compound	melting point
O=C1Nc2ccc(Br)cc2C1=NN=Cc1ccn[nH]1 [Compound 7c]	264 to 266 °C
Cc1csc(C=NN=C2C(=O)Nc3ccccc32)n1 [Compound 5a]	238 to 240 °C

Request the reported melting point associated with O=C1Nc2ccc(Cl)cc2C1=NNc1nc(-c2ccccc2)cs1 [Compound 10e] 292 to 294 °C

// repeat for Cc1csc(C=NN=C2C(=O)Nc3ccc(Cl)cc32)n1 [Compound 5c] and report 290 to 292 °C

// repeat for Cc1ccc(-c2csc(NN=C3C(=O)Nc4ccc(Cl)cc43)n2)cc1 [Compound 10f] and report > 300 °C

// repeat for O=C1Nc2ccc(Cl)cc2C1=NN=Cc1ccn[nH]1 [Compound 7b] and report > 300 °C

// repeat for O=C1Nc2ccc(Cl)cc2C1=NN=Cc1nccs1 [Compound 5b] and report 293 to 295 °C

// repeat for COC(=O)c1ccc(C=NN=C2C(=O)Nc3ccc(Br)cc32)cc1 [Compound 3e] and report 283 to 285 °C

// repeat for O=C1Nc2ccccc2C1=NNc1nc(-c2ccc(Cl)cc2)cs1 [Compound 10c] and report 295 to 297 °C

---

Test system: lung cancer A-549 cell line
Experiment Description: CellTiter-Glo Luminescent cell viability assay, anti-proliferative activity, A-549
Assay type: cell-based, human
Settings: Homo sapiens, A549, sensitive line in comparison with resistant NCI-H69AR; read-out: IC50 Sensitive A-549
# IC50 annotations

Answered cases to consult:
Molecule	IC50
CCN(CC)CCNC(=O)c1c(C)[nH]c(/C=C2\C(=O)Nc3ccc(F)cc32)c1C [Sunitinib, reference compound]	3.1 µM
O=C1Nc2ccc(Cl)cc2C1=NN=Cc1ccn[nH]1	3.8 µM

Read the next record carefully.
Request the reported IC50 associated with O=C1Nc2ccc(Cl)cc2C1=NNc1nc(-c2ccccc2)cs1 [Compound 10e] 4.1 µM
